target_under_test: human full-length CCK-2 receptor (Homo sapiens)
Construct: stably transfected to over-express the human full-length CCK-2 receptor (A431-CCK-2R); expressed in transfected cells
test_details: Competitive ligand binding against [^177Lu]Lu-DOTA-CP04 in A431-CCK-2R cells
experimental_context: D-Ala analogue versus baseline comparative example-1
Square brackets hold non-standard residues; d marks the D form. Peptide text beside a SMILES is read from it. 1Nal = N[C@@H](Cc1cccc2ccccc12)C(=O)O; NMeNle = CCCC[C@H](NC)C(=O)O; Sar = CNCC(=O)O

compound	target_under_test	loss of binding affinity / activity
CCCC[C@@H](C(=O)N[C@@H](CC(=O)O)C(=O)N[C@@H](Cc1cccc2ccccc12)C(N)=O)N(C)C(=O)[C@H](Cc1c[nH]c2ccccc12)NC(=O)CN(C)C(=O)[C@H](Cc1ccc(O)cc1)NC(=O)[C@H](C)NC(=O)[C@@H](C)NC(=O)[C@@H](CCC(=O)O)NC(=O)[C@@H](CCC(=O)O)NC(=O)[C@@H](CCC(=O)O)NC(=O)[C@@H](CCC(=O)O)NC(=O)[C@H](N)CCC(=O)O [F] (H-[dE][dE][dE][dE][dE][dA]AY[Sar]W[NMeNle]D[1Nal]-NH2)	human full-length CCK-2 receptor (Homo sapiens)	approx. 5 fold
CCCC[C@@H](C(=O)N[C@@H](CC(=O)O)C(=O)N[C@@H](Cc1cccc2ccccc12)C(N)=O)N(C)C(=O)[C@H](Cc1c[nH]c2ccccc12)NC(=O)CN(C)C(=O)[C@H](Cc1ccc(O)cc1)NC(=O)[C@H](C)NC(=O)[C@@H](CCC(=O)O)NC(=O)[C@@H](CCC(=O)O)NC(=O)[C@@H](CCC(=O)O)NC(=O)[C@@H](CCC(=O)O)NC(=O)[C@@H](C)NC(=O)[C@H](N)CCC(=O)O [B] (H-[dE][dA][dE][dE][dE][dE]AY[Sar]W[NMeNle]D[1Nal]-NH2)	human full-length CCK-2 receptor (Homo sapiens)	approx. 5 fold
CCCC[C@@H](C(=O)N[C@@H](CC(=O)O)C(=O)N[C@@H](Cc1cccc2ccccc12)C(N)=O)N(C)C(=O)[C@H](Cc1c[nH]c2ccccc12)NC(=O)CN(C)C(=O)[C@H](Cc1ccc(O)cc1)NC(=O)[C@H](C)NC(=O)[C@@H](CCC(=O)O)NC(=O)[C@@H](CCC(=O)O)NC(=O)[C@@H](C)NC(=O)[C@@H](CCC(=O)O)NC(=O)[C@@H](CCC(=O)O)NC(=O)[C@H](N)CCC(=O)O [D] (H-[dE][dE][dE][dA][dE][dE]AY[Sar]W[NMeNle]D[1Nal]-NH2)	human full-length CCK-2 receptor (Homo sapiens)	approx. 5 fold

---

target_under_test: human full-length CCK-2 receptor (Homo sapiens, UniProt P32239)
Construct: stably transfected to over-express the human full-length CCK-2 receptor (A431-CCK-2R); expressed in transfected cells
Sequence (P32239 1-447): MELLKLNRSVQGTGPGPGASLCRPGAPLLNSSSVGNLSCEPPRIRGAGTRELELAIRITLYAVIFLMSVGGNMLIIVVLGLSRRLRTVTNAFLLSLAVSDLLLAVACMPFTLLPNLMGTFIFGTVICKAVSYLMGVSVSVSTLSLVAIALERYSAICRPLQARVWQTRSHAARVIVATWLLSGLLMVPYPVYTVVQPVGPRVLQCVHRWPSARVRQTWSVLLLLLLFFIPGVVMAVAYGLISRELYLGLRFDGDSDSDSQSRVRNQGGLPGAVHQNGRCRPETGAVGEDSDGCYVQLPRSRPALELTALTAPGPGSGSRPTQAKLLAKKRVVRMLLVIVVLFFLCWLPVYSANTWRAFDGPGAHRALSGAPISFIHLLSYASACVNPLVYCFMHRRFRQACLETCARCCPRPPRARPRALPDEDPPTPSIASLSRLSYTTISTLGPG
test_details: Competitive ligand binding against [^177Lu]Lu-DOTA-CP04 in A431-CCK-2R cells
experimental_context: modified peptides based on Peptide C (Table 4); read-out: IC50
pIC50: −log10 of the molar value. Square brackets hold non-standard residues; d marks the D form. Peptide text beside a SMILES is read from it. Phe(3,4,5-F3) = N[C@@H](Cc1cc(F)c(F)c(F)c1)C(=O)O; Phe(3-F) = N[C@@H](Cc1cccc(F)c1)C(=O)O; NMeNle = CCCC[C@H](NC)C(=O)O; Sar = CNCC(=O)O
Let's look at some molecules and their measured pIC50.
reported_endpoint: pIC50

molecule	reported_endpoint	meas_value
CCCC[C@@H](C(=O)N[C@@H](CC(=O)O)C(=O)N[C@@H](Cc1ccc(O)cc1)C(N)=O)N(C)C(=O)[C@H](Cc1c[nH]c2ccccc12)NC(=O)CN(C)C(=O)[C@H](Cc1ccc(O)cc1)NC(=O)[C@H](C)NC(=O)[C@@H](CCC(=O)O)NC(=O)[C@@H](CCC(=O)O)NC(=O)[C@@H](CCC(=O)O)NC(=O)[C@@H](C)NC(=O)[C@@H](CCC(=O)O)NC(=O)[C@H](N)CCC(=O)O [Peptide R] (H-[dE][dE][dA][dE][dE][dE]AY[Sar]W[NMeNle]DY-NH2; N-terminus assumed)	pIC50	8.94
CCCC[C@@H](C(=O)N[C@@H](CC(=O)O)C(=O)N[C@@H](Cc1cccc(F)c1)C(N)=O)N(C)C(=O)[C@H](Cc1c[nH]c2ccccc12)NC(=O)CN(C)C(=O)[C@H](Cc1ccc(O)cc1)NC(=O)[C@H](C)NC(=O)[C@@H](CCC(=O)O)NC(=O)[C@@H](CCC(=O)O)NC(=O)[C@@H](CCC(=O)O)NC(=O)[C@@H](C)NC(=O)[C@@H](CCC(=O)O)NC(=O)[C@H](N)CCC(=O)O [U] (H-[dE][dE][dA][dE][dE][dE]AY[Sar]W[NMeNle]D[Phe(3-F)]-NH2; N-terminus assumed)	pIC50	9.52
CCCC[C@@H](C(=O)N[C@@H](CC(=O)O)C(=O)N[C@@H](Cc1cc(F)c(F)c(F)c1)C(N)=O)N(C)C(=O)[C@H](Cc1c[nH]c2ccccc12)NC(=O)CN(C)C(=O)[C@H](Cc1ccc(O)cc1)NC(=O)[C@H](C)NC(=O)[C@@H](CCC(=O)O)NC(=O)[C@@H](CCC(=O)O)NC(=O)[C@@H](CCC(=O)O)NC(=O)[C@@H](C)NC(=O)[C@@H](CCC(=O)O)NC(=O)[C@H](N)CCC(=O)O [N] (H-[dE][dE][dA][dE][dE][dE]AY[Sar]W[NMeNle]D[Phe(3,4,5-F3)]-NH2; N-terminus assumed)	pIC50	9.35
